system_tested: T1, Anti-CD28 Fab (SEQ ID NOs: 696, 697)
T1 construct: Biotinylated and captured on neutravidin coated plates in the phage ELISA
experimental_protocol: phage ELISA, clonal phage on biotinylated anti-CD28 Fab captured on neutravidin plates;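 further: crude clonal phage supernatants added to wells pretreated with CD28 antigen or with blocking buffer only, bound phage detected by HRP-linked anti-M13 antibody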
property_label: Anti-CD28 Fab signal (phage binding ELISA)
In your answer, state the number alone without any accompanying words.

Some solved entries appear below for comparison.
>  <binder>
YCEGHLAEYMNKCL [Phage-1140]

>  <obs_value>
1.24

$$$$
>  <binder>
YCAGHTAEYMAKCL [Phage-1139]

>  <obs_value>
1.24

$$$$
>  <binder>
YCEGHLPMYMTKCL [Phage-1136]

>  <obs_value>
1.25

$$$$
>  <binder>
YCEGHLQEHMAKCL [Phage-1134]

>  <obs_value>
1.25

$$$$
>  <binder>
YCEGHSEEYMAKCL [Phage-1132]

>  <obs_value>
1.26

$$$$
>  <binder>
YCEGHMSIYMQKCL [Phage-1133]

>  <obs_value>
1.25

$$$$
>  <binder>
YCDGHLEQYMLKCL [Phage-1142]

>  <obs_value>
1.24

$$$$

Now, please, on to the next binder.
Which Anti-CD28 Fab signal (phage binding ELISA) value is on record for YCDGHSEQYMAKCL [Phage-1137] ?
1.24
